What Activity was measured for each of the following?
System: Peritoneal macrophage
Assay: Induction of NO generation in Leishmania donovani MHOM/IN/AG/83 infected BALB/c mouse peritoneal macrophages assessed as nitrite levels after 48 hrs by Griess assay relative to untreated control; also: test concentration or dose not given here
Format: functional
Conditions: record 2
Answers are plain numbers, in µM.

Here's what some known entries look like.
Fill in: Activity of C=CCc1ccc(OCCC)c(OC)c1 is ___
10.64

What measured Activity goes with C=CCc1ccc(OCCCC)c(OC)c1 ?
14.23

Requested read-out: Activity. Entry: C=CCc1ccc(OC(=O)CC)c(OC)c1
12.19

For the 7 molecules below, give their Activity values.
1. C=CCc1ccc(OC)c(OC)c1
2. C=CCc1ccc(OC(=O)CCCCC)c(OC)c1
3. C=CCc1ccc(OC(=O)Cc2ccccc2)c(OC)c1
4. C=CCc1ccc(OCCCCC)c(OC)c1
5. CCCCCCCCCCCCCCCCOP(=O)([O-])OCC[N+](C)(C)C
6. C=CCc1ccc(OC(=O)c2c[nH]c3ccccc23)c(OC)c1
7. C=CCc1ccc(OCCCCCCCC)c(OC)c1

1. 10.82
2. 18.29
3. 36.45
4. 12.95
5. 26.01
6. 26.24
7. 26.01

Hi there! I need Activity for each item below, if you can.
1. C=CCc1ccc(OC(=O)c2cccc([N+](=O)[O-])c2)c(OC)c1
2. C=CCc1ccc(O)c(OC)c1
3. C=CCc1ccc(OC(=O)CCCCCCCCCCC)c(OC)c1
4. C=CCc1ccc(OC(=O)CCC)c(OC)c1
5. C=CCc1ccc(OC(=O)CCCC)c(OC)c1

1. 24.58
2. 7.45
3. 34.28
4. 23.08
5. 24.39

Can you give me Activity for all of these, one by one?
1. C=CCc1ccc(OCCCCCCC)c(OC)c1
2. C=CCc1ccc(OC(=O)CCCCCCCCCCCCCCCCC)c(OC)c1
3. C=CCc1ccc(OC(=O)c2ccc(F)cc2)c(OC)c1
4. C=CCc1ccc(OC(=O)CCCCCC)c(OC)c1

1: 22.43; 2: 38.83; 3: 14.56; 4: 25.84

List Activity for every entry below, keeping the order given.
1. C=CCc1ccc(OC(C)=O)c(OC)c1 [EUGENYL ACETATE]
2. C=CCc1ccc(OC(=O)CCCCCCCCCCCCCCC)c(OC)c1

1: 12.44; 2: 39.42

Could I get Activity for every one of these entries?
1. C=CCc1ccc(OC(=O)CCCCCCCC)c(OC)c1
2. C=CCc1ccc(OCC=C(C)C)c(OC)c1
3. C=CCc1ccc(OCCCCCCCCCCCCCCCC)c(OC)c1
4. C=CCc1ccc(OCCCCCCCCC)c(OC)c1
5. C=CCc1ccc(OCC)c(OC)c1

27.14
8.37
29.1
25.19
10.43

---

Test system: Peritoneal macrophage
Experiment: Induction of NO generation in Leishmania donovani MHOM/IN/AG/83 infected BALB/c mouse peritoneal macrophages assessed as nitrite levels after 48 hrs by Griess assay relative to untreated control; also: test concentration or dose not given here
Assay type: functional
PROPERTY_LABEL: Activity

Some entries whose results are on file:
Peritoneal macrophage / Activity / C=CCc1ccc(OCCCCCCC)c(OC)c1 : value?
Dose-dependent effect

Give the reported Activity for C=CCc1ccc(OC(=O)CCCCCCCCCCC)c(OC)c1 (system: Peritoneal macrophage).
Dose-dependent effect

Value wanted: Activity (Peritoneal macrophage) of entry C=CCc1ccc(OC)c(OC)c1
Dose-dependent effect

Fill in the recorded Activity for this compound, with Peritoneal macrophage as test system: C=CCc1ccc(OCCCCCCCC)c(OC)c1
Dose-dependent effect

Under Peritoneal macrophage: Activity value of C=CCc1ccc(OC(C)=O)c(OC)c1 [EUGENYL ACETATE] ?
Dose-dependent effect

Record C=CCc1ccc(OC(=O)c2ccccc2Cl)c(OC)c1 : what is its Activity with Peritoneal macrophage?
Dose-dependent effect

Request: Activity, test system Peritoneal macrophage, entry C=CCc1ccc(OCCCCCCCCC)c(OC)c1
Dose-dependent effect

Enter reported Activity observed with Peritoneal macrophage for C=CCc1ccc(OC(=O)c2c[nH]c3ccccc23)c(OC)c1
Dose-dependent effect

Each compound below has a reported value. Please supply its Activity.
1. C=CCc1ccc(OC(=O)CC)c(OC)c1
2. C=CCc1ccc(OC(=O)c2cccc([N+](=O)[O-])c2)c(OC)c1

1: Dose-dependent effect; 2: Dose-dependent effect

Hi, could you look up Activity for each item in my list?
1. C=CCc1ccc(OC(=O)CCCCCCCCCCCCCCCCC)c(OC)c1
2. C=CCc1ccc(OC(=O)c2ccc([N+](=O)[O-])cc2)c(OC)c1
3. C=CCc1ccc(OC(=O)CCCCCCCCCCCCCCC)c(OC)c1
4. C=CCc1ccc(OCC=C(C)C)c(OC)c1
5. C=CCc1ccc(OCCCCCCCCCCCCCCCC)c(OC)c1
6. C=CCc1ccc(OC(=O)c2ccc(F)cc2)c(OC)c1

1: Dose-dependent effect; 2: Dose-dependent effect; 3: Dose-dependent effect; 4: Dose-dependent effect; 5: Dose-dependent effect; 6: Dose-dependent effect

---

Assay: Therapeutic index, ratio of IC50 for mouse RAW264.7 cells to IC50 for Leishmania donovani MHOM/IN/AG/83 promastigotes
Type: toxicity
Conditions: read-out: Ratio IC50
Mark Criterion met for reported selectivity ratio of 4 or greater; mark Criterion not met for anything smaller.

Reported selectivity ratio at or above 4? C=CCc1ccc(OC(=O)CC)c(OC)c1
Criterion not met

Textbook exercise: given the entry C=CCc1ccc(OC(=O)[C@@H]2CCCN2)c(OC)c1 , state whether its selectivity ratio is greater than or equal to 4.
Criterion not met

Given the entry C=CCc1ccc(OC(=O)CCCC)c(OC)c1 , answer whether its selectivity ratio meets or surpasses 4.
Criterion not met

Identify whether the reported selectivity ratio of the following molecule is 4 or greater: C=CCc1ccc(OC(=O)CCCCCCCCCCCCCCCCC)c(OC)c1
Criterion met

Check if selectivity ratio >= 4 (inclusive). Item: C=CCc1ccc(OC(=O)CCCCCCCCCCCCCCC)c(OC)c1
Criterion met

Is selectivity ratio for C=CCc1ccc(OC(=O)COc2ccccc2)c(OC)c1 at or above 4?
Criterion met

Is reported selectivity ratio greater than or equal to 4 here: C=CCc1ccc(OCCCCCCCCCCCC)c(OC)c1
Criterion met

Does the reported selectivity ratio for C=CCc1ccc(OC)c(OC)c1 fall at or above the 4 mark?
Criterion not met

Answer whether selectivity ratio of C=CCc1ccc(OC(=O)[C@@H](N)Cc2c[nH]c3ccccc23)c(OC)c1 is greater than or equal to 4.
Criterion met

Answer whether selectivity ratio of C=CCc1ccc(OC(=O)CCC)c(OC)c1 is greater than or equal to 4.
Criterion not met

Form field: selectivity ratio at least 4? Entry: C=CCc1ccc(OCCCCCCCCCCCCCCCC)c(OC)c1
Criterion met

Record C[C@@H]1[C@H](O)[C@@H](C)/C=C/C=C/C=C/C=C/C=C/C=C/C=C/[C@H](O[C@@H]2O[C@H](C)[C@@H](O)[C@H](N)[C@@H]2O)C[C@@H]2O[C@](O)(C[C@@H](O)C[C@@H](O)[C@H](O)CC[C@@H](O)C[C@@H](O)CC(=O)O[C@H]1C)C[C@H](O)[C@H]2C(=O)O ; criterion: selectivity ratio no lower than 4. Met?
Criterion met

Hi, just wondering whether CCCCCCCCCCCCCCCCOP(=O)([O-])OCC[N+](C)(C)C shows selectivity ratio of 4 or higher.
Criterion met

Identify whether the reported selectivity ratio of the following molecule is 4 or greater: C=CCc1ccc(OC(=O)CCCCCCCC)c(OC)c1
Criterion not met

Test whether the molecule C=CCc1ccc(OC(=O)c2c[nH]c3ccccc23)c(OC)c1 records selectivity ratio of 4 or higher.
Criterion met

Hello, I need to know if C=CCc1ccc(OC(C)=O)c(OC)c1 [EUGENYL ACETATE] has measured selectivity ratio not below 4. Thanks!
Criterion not met

selectivity ratio >= 4 for C=CCc1ccc(OC(=O)CCCCCCCCCCC)c(OC)c1 ?
Criterion met

Check if selectivity ratio >= 4 (inclusive). Item: C=CCc1ccc(OCCCCCC)c(OC)c1
Criterion not met

Decide: selectivity ratio of C=CCc1ccc(OCCCCCCCC)c(OC)c1 >= 4?
Criterion met

Test whether the molecule C=CCc1ccc(O)c(OC)c1 records selectivity ratio of 4 or higher.
Criterion not met

Could you tell me if the measured selectivity ratio of C=CCc1ccc(OC(=O)C2CCNCC2)c(OC)c1 reaches 4 or more?
Criterion not met

Please indicate if the recorded selectivity ratio for C=CCc1ccc(OC(=O)CCCCCCCCC)c(OC)c1 meets or exceeds 4.
Criterion met

Hello, I need to know if C=CCc1ccc(OCCCCCCC)c(OC)c1 has measured selectivity ratio not below 4. Thanks!
Criterion not met

Dear colleague, could you confirm whether C=CCc1ccc(OCCCCCCCCC)c(OC)c1 has selectivity ratio at or above 4?
Criterion met

Please check the record C=CCc1ccc(OCC)c(OC)c1 and state if its selectivity ratio is at or above 4.
Criterion not met
